FYI, the data here is from the supplement of paper PMC7125110.

B1: glmS ribozyme (parent)
chain: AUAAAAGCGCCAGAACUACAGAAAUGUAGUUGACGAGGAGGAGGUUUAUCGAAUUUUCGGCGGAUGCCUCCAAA

variants of: B1; experiment: self-cleavage kobs at 160 uM GlcN6P; higher = faster cleavage; RNA array; details: with glucosamine-6-phosphate
Fewer inactive variants are shown than the library holds.
readout kind: self-cleavage kobs at 160 uM GlcN6P

| sequence data | readout kind | result |
| --- | --- | --- |
| AUAAAAGCGCCAGAACUACAGAAAUGUAGUUGACGAGAAGGAGGUUUAUCGAAUUUUCGGCGGGUGUCUCCAAA | self-cleavage kobs at 160 uM GlcN6P | < 1e-05 s⁻¹ |
| AUAAAAGCGCCAGAACUACAGAAAUGUAGUUGACGAGGAGGAGAUUUAUCGAAUUUUCGGCGGAGGCCUCCAAA | self-cleavage kobs at 160 uM GlcN6P | < 1e-05 s⁻¹ |
| AUAAAAGCGCCAGAACUACAGAAAUGUAGUCGACGAGGAGGAGGUUUAUCGAAUUUGCGGCGGAUGACUCCAAA | self-cleavage kobs at 160 uM GlcN6P | < 1e-05 s⁻¹ |
| AUAAAAGCGCCAGAACUACAGAAAUGUAGUAGACGAGGAGGAGGUUUAUCGAUUUUUCGGCGGAUGCCUCCAAA | self-cleavage kobs at 160 uM GlcN6P | 0.000911 s⁻¹ |
| AUAAAAGCGCCAGAACUACAGAAAUGUAGUUGACGAGGAGGAGGUUUAUCGAUUUUUCGGCGGAUGCCUCGAAA | self-cleavage kobs at 160 uM GlcN6P | 0.000213 s⁻¹ |
| AUAAAUGCGCCAGAACUACAGAAAUGUAGUUGAAGAGGAGGAGGUUUAUCGAAUUUUCGGCGGAUGCCUCCAAA | self-cleavage kobs at 160 uM GlcN6P | < 1e-05 s⁻¹ |
| AUAAAAGCGCCAGAACUACAGAAAUGUAGUUGACCAGGAGGAGGUUUAUCGAAUUUGCCGCGGAUGCCUCCAAA | self-cleavage kobs at 160 uM GlcN6P | < 1e-05 s⁻¹ |
| AUAAAAGCGCCAGAACUACAGAAAUGUAGUUGACGAGGGGGAGGUUUAUCGAAUUUUCGGCGGAUGGCUCCAAA | self-cleavage kobs at 160 uM GlcN6P | 0.000603 s⁻¹ |
| AUAAAAGCGCCAGAACUACAGAAAUGUAGUUGACGAGGAGGCGGUUUAUCGACUUUUCGGCGGAUGCCUCCAAA | self-cleavage kobs at 160 uM GlcN6P | < 1e-05 s⁻¹ |
| AUAAAAGCGCCGGAACUACAGAAAUGUAGUUGACGAGGAGGAGGUUUAUCCAAUUUUCGGCGGAUGCCUCCAAA | self-cleavage kobs at 160 uM GlcN6P | < 1e-05 s⁻¹ |
| AUAAAAGCGCAAGAACUACAGAAAUGUAGUUGACGCGGAGGAGGUUUAUCGAAUUUUCGGCGGAUGCCUCCAAA | self-cleavage kobs at 160 uM GlcN6P | < 1e-05 s⁻¹ |
| AUAAAAGCGCCAGAACUACAGAAAUGUAGUUGACGGGGAGGAGGUUUAUCGAAUUUUCGGCGUAUGCCUCCAAA | self-cleavage kobs at 160 uM GlcN6P | < 1e-05 s⁻¹ |
| AUAAAAGCGCCAGAACUACAGAAAUGUAGUUGACGAGGAGGAGCUUUUUCGAAUUUUCGGCGGAUGCCUCCAAA | self-cleavage kobs at 160 uM GlcN6P | < 1e-05 s⁻¹ |
| AUAAAAGCGCCAGAACUACAGAAAUGUAGUUGACGAGUAGGAGGUUUAUCGAAUUUUCGGCGGAUUCCUCCAAA | self-cleavage kobs at 160 uM GlcN6P | < 1e-05 s⁻¹ |
| AUAAAAGCGCCAGAACUACAGAAAUGUAGUUGACGAGGAGGAGGUUUAUCGAAUUUUCGGCGGGUGACUCCAAA | self-cleavage kobs at 160 uM GlcN6P | 0.000303 s⁻¹ |
| AUAAAAGCGUCGGAACUACAGAAAUGUAGUUGACCAGGAGGAGGUUUAUCGAAUUUUCGGCGGAUGCCUCCAAA | self-cleavage kobs at 160 uM GlcN6P | < 1e-05 s⁻¹ |
| AUAAAAGCGCCAGAACUACAGAAAUGUAGUUGACGAGGAGGAGGUAUACCGAAUUUUCGGCGGAUGCCUCCAAA | self-cleavage kobs at 160 uM GlcN6P | < 1e-05 s⁻¹ |
| AUAAAAGCGCUAGAACUACAGAAAUGUAGUUGACGAGGAGGAGGUUUAUCGAAUGUUCGGCGGAUGCCUCCAAA | self-cleavage kobs at 160 uM GlcN6P | 0.000214 s⁻¹ |
| AUAAAAGCGCCAGAACUACAGAAAUGUAAUUGACGAGGAGGGGGUUUAUCGAAUUUUCGGCGGAUGCCUCCAAA | self-cleavage kobs at 160 uM GlcN6P | 0.000587 s⁻¹ |
| AUAAAAGCGCCAGAACUACAGAAAUGUAGUUGACGAGGAGGAGGUUUAUGGAAUUUUCGGCGGAUGCCGCCAAA | self-cleavage kobs at 160 uM GlcN6P | 0.000165 s⁻¹ |
| AUAAAAGCGCCAGAACUACAGAAAUGUAUUUGACGAGGAGGAGGCUUAUCGAAUUCUCGGCGGAUGCCUCCAAA | self-cleavage kobs at 160 uM GlcN6P | < 1e-05 s⁻¹ |
| AUAAAAGCGCCAGAAGUACAGAAAUGUAGUUAACGAGGAGGAGGUUUAUCGAAUUUUCGGCGGAUGCCUCCAAA | self-cleavage kobs at 160 uM GlcN6P | 7.04e-05 s⁻¹ |
